Target: PDE5 (human recombinant) (Homo sapiens, UniProt O76074)
Assay: Inhibition of PDE5 activity: Radioactive Scintillation Proximity Assay (SPA)
Format: biochemical
Details: read-out: PDE5 mean pIC50 (converted)
Where a name gives a salt, the structure may show the parent alone.
Could you please report measured IC50 for the items listed next?

[[record]]
compound = "Cc1cc(S(=O)(=O)CCNS(C)(=O)=O)cc2c(Nc3cccc4c3CCO4)c(C(N)=O)cnc12"
property_label = "IC50"
result = "> 3.16 µM"


Count: 6. Required value per item: IC50.
1. COc1cccc(Nc2c(C(N)=O)cnc3c(C)cc(S(=O)(=O)c4cncc(C(=O)N(C)C)c4)cc23)c1 [Example 546, hydrochloride]
2. COc1ccc(S(=O)(=O)c2cc(C)c3ncc(C(N)=O)c(Nc4cccc(OC)c4)c3c2)cc1
3. COc1cccc(Nc2c(C(N)=O)cnc3c(C)cc(S(=O)(=O)c4ccc(OC)c(OC)c4)cc23)c1
4. COc1cccc(Nc2c(C(N)=O)cnc3ccc(S(=O)(=O)c4cccc(C(=O)N(C)C)c4)cc23)c1
5. CN(C)c1cccc(Nc2c(C(N)=O)cnc3ccc(S(=O)(=O)C4CCCC4)cc23)c1
6. Cc1cccc(Nc2c(C(N)=O)cnc3c(Cl)cc(S(C)(=O)=O)cc23)c1

Reply text:
1: 20 µM; 2: 6.31 µM; 3: > 0.1 µM; 4: > 10 µM; 5: > 31.6 µM; 6: 7.94 µM

Inquiry: What IC50 value was documented for this compound, `COc1cccc(Nc2c(C(N)=O)cnc3ccc(S(C)(=O)=O)cc23)c1` ?
Reply text: 15.8 µM
